METHOD DESCRIPTION: amyloid nucleation score (Sup35N fusion, yeast selection) (log enrichment); library NNK2; higher = more nucleation; inactive = no reads after selection;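 note: zero at mode of non-aggregating sequences after 7 days selection at 30°C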
Label rule, in plain words: amyloid nucleation score of -0.3 and up is Y, under -0.3 is N.

Hi, just wondering whether MFYLCLRVVFRLKSWDFCDK shows amyloid nucleation score of -0.3 or higher. Y

* * *

METHOD DESCRIPTION: amyloid nucleation score (Sup35N fusion, yeast selection) (log enrichment); library NNK1; higher = more nucleation; inactive = no reads after selection
Label rule, in plain words: amyloid nucleation score of 0.1 and up is YES, under 0.1 is NO.

Solved cases (2 shown):
SUBSTANCE: ELRYCEFTCSISWA
QUALITATIVE LABEL: YES
//
SUBSTANCE: LSNFDRWKTSTVWNSGWFAA
QUALITATIVE LABEL: NO

Kindly consider the entry below.
Hi, just wondering whether FSREYL shows amyloid nucleation score of 0.1 or higher. NO
